Exercise: state measured MIC for each of the compounds provided.
Test system: Msm 700084
Method notes: microbe, parasite or virus in culture
Type: cell-based
Assay setup: Mycolicibacterium smegmatis, 700084; read-out: MIC Msm 700084
Just the number please, in µM, no unit attached.

Field request: MIC | item: CCCCCn1cc(C[C@@H]2NC(=O)[C@H](CC(C)C)N(C)C(=O)[C@H](C(C)C)NC(=O)[C@H]([C@H](OC)c3ccccc3)NC(=O)[C@H](C)NC(=O)[C@H](C[C@@H](C)CO)N(C)C(=O)[C@H](Cc3cn(C)c4ccccc34)N(C)C2=O)nn1 [Compound 25] 12.5

Also COC(c1ccccc1)C1NC(=O)C(C)NC(=O)C(CC(C)CO)N(C)C(=O)C(Cc2cn(CC=CCn3cc(CC4NC(=O)C(C(C)C)NC(=O)C(CC(C)C)N(C)C(=O)C(C(C)C)NC(=O)C(C(OC)c5ccccc5)NC(=O)C(C)NC(=O)C(CC(C)CO)N(C)C4=O)c4ccccc43)c3ccccc23)NC(=O)C(C(C)C)NC(=O)C(CC(C)C)N(C)C(=O)C(C(C)C)NC1=O (stereo not drawn) [Compound 15] , if possible. 50

* * *

Method notes: in vivo
Assay type: in vivo, BALB/cAnNCrl mice
Assay setup: male, BALB/cAnNCrl, mouse, in vivo, iv, 0.0677 umol/kg, iv bolus, individual animals 1-3
Reported endpoint: half-life (h)
Just the number please, in h, no unit attached.

Field request: half-life | item: `CO[C@H](c1ccccc1)[C@@H]1NC(=O)[C@H](C)NC(=O)[C@H](C[C@@H](C)CO)N(C)C(=O)[C@H](Cc2cn(Cc3cn(CCOCCn4cc(Cn5cc(C[C@@H]6NC(=O)[C@H](C(C)C)NC(=O)[C@H](CC(C)C)N(C)C(=O)[C@H](C(C)C)NC(=O)[C@H]([C@H](OC)c7ccccc7)NC(=O)[C@H](C)NC(=O)[C@H](C[C@@H](C)CO)N(C)C6=O)c6ccccc65)nn4)nn3)c3ccccc23)NC(=O)[C@H](C(C)C)NC(=O)[C@H](CC(C)C)N(C)C(=O)[C@H](C(C)C)NC1=O` 2.7

* * *

Method notes: in vivo
Assay type: in vivo, BALB/cAnNCrl mice
Assay setup: male, BALB/cAnNCrl, mouse, in vivo, iv, 0.0677 umol/kg, iv bolus, mice, Mean; read-out: MRT
Protocol: The in-life experimental procedures were conducted in strict compliance with German and European animal welfare legislation in an AAALAC-accredited facility. Male BALB/cAnNCrl mice (Charles River Laboratories Research Models and Services, 97633 Sulzfeld, Germany) were used. […] In case of incomplete dissolution, the formulation was filtered at 40 °C (non-pyrogenic sterile-R filter, 0.2 µm). […] Actual test item content was determined bioanalytically. […]
Reported endpoint: MRT (h)
Just the number please, in h, no unit attached.

Field request: MRT | item: `CO[C@H](c1ccccc1)[C@@H]1NC(=O)[C@H](C)NC(=O)[C@H](C[C@@H](C)CO)N(C)C(=O)[C@H](Cc2cn(Cc3cn(CCOCCn4cc(Cn5cc(C[C@@H]6NC(=O)[C@H](C(C)C)NC(=O)[C@H](CC(C)C)N(C)C(=O)[C@H](C(C)C)NC(=O)[C@H]([C@H](OC)c7ccccc7)NC(=O)[C@H](C)NC(=O)[C@H](C[C@@H](C)CO)N(C)C6=O)c6ccccc65)nn4)nn3)c3ccccc23)NC(=O)[C@H](C(C)C)NC(=O)[C@H](CC(C)C)N(C)C(=O)[C@H](C(C)C)NC1=O` 4.7
